target: full-length ATR (Homo sapiens (Human), UniProt Q13535); assay: ATR Inhibition Assay (radioactive-phosphate incorporation); type: biochemical; settings: read-out: ATR Ki
Sequence (Q13535 whole entry): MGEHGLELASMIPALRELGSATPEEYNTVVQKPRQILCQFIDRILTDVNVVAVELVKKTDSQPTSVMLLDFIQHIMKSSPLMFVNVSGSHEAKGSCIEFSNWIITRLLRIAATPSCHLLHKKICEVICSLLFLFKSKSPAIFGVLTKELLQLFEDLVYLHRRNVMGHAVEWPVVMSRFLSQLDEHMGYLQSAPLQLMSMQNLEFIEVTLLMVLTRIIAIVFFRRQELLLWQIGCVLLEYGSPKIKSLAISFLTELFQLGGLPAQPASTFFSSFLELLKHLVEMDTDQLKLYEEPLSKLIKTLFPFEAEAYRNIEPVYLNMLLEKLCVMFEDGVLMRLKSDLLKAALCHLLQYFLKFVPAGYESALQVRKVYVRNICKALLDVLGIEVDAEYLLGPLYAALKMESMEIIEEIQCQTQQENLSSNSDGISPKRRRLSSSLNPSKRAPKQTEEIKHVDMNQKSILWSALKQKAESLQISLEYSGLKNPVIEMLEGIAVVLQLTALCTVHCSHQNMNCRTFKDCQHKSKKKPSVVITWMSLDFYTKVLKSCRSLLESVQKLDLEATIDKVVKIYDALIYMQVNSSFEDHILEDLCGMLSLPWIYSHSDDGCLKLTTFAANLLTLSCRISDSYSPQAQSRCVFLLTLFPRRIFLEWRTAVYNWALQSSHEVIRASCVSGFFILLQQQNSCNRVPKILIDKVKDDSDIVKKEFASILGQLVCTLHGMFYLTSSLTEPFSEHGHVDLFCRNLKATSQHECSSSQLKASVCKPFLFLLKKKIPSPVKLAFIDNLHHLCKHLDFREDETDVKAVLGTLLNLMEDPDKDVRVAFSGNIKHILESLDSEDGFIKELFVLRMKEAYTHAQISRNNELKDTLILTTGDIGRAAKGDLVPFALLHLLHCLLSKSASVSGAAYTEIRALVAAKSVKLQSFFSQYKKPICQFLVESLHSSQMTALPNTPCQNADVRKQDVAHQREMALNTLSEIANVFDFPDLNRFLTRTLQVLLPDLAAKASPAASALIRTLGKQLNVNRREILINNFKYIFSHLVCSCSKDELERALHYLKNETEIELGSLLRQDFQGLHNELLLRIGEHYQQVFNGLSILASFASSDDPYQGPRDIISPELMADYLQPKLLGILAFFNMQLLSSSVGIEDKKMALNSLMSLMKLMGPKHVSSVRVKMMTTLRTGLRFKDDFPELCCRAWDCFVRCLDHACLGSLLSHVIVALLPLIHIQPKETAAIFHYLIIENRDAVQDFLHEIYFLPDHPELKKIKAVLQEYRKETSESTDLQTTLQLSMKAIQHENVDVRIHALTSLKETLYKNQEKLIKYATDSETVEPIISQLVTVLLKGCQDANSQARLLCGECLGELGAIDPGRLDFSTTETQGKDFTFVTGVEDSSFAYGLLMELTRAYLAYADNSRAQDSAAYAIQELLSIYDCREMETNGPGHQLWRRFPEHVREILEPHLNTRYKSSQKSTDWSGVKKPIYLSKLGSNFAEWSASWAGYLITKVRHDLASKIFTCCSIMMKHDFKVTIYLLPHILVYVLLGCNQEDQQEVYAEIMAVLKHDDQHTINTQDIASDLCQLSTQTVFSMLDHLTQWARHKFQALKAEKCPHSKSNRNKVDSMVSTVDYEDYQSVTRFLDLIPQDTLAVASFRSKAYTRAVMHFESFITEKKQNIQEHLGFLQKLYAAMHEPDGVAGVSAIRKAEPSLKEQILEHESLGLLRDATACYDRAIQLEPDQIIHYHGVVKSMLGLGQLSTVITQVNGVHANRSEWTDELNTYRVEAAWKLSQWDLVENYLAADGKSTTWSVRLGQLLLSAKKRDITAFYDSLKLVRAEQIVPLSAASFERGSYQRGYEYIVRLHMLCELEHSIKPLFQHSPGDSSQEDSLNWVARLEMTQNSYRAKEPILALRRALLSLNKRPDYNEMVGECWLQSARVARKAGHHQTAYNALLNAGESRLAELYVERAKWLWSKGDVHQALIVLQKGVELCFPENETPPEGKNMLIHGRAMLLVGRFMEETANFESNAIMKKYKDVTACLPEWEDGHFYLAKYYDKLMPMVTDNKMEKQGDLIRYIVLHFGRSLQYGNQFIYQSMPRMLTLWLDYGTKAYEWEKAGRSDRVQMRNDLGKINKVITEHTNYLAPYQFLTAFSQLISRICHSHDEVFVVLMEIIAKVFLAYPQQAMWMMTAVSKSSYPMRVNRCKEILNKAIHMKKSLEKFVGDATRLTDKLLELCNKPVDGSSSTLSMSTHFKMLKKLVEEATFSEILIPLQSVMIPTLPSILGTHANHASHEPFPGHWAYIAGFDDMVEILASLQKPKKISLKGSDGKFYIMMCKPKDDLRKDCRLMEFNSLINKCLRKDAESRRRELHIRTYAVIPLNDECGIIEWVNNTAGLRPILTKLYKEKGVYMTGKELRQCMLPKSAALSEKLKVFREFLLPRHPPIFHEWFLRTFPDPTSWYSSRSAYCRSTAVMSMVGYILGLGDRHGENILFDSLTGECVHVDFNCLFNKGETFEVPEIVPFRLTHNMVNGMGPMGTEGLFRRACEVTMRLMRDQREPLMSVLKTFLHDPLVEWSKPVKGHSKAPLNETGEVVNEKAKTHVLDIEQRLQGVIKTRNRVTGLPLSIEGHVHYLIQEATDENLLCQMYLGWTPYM
pKi: −log10 of the molar value.
Quantity Name: pKi

INSERT INTO measurements (compound, value_observed) VALUES
  ('CN(C)C(=O)c1ccc(-c2cnc(N)c(-c3nnc(-c4cccc(F)c4)o3)n2)cc1', '7.00 to 8.00'),
  ('Nc1ncc(-c2ccc(C(=O)N3CCC(N4CCCC4)CC3)cc2)nc1C(=O)Nc1ccccc1', '7.00 to 8.00'),
  ('CN(C)CCN(C)C(=O)c1ccc(-c2cnc(N)c(C(=O)Nc3ccccc3)n2)cc1', '7.00 to 8.00'),
  ('Cc1ccc2nc(-c3nc(-c4ccc(C(=O)N5CCNCC5)cc4)cnc3N)[nH]c2c1 [III-3]', '7.00 to 8.00');

Please give pKi for each item listed below.
1. Cc1cnc(NC(=O)c2nc(-c3ccc(S(C)(=O)=O)cc3)cnc2N)s1
2. CC(=O)OCc1ccc(-c2nnc(-c3nc(-c4ccc(C(=O)N(C)C)cc4)cnc3N)o2)cc1
3. CN(C)C(=O)c1ccc(-c2cnc(N)c(-c3nnc(-c4cccc(N)n4)o3)n2)cc1
4. N#Cc1cccn1-c1cnc(N)c(-c2nnc(-c3ccccc3)o2)n1
5. Nc1ncc(-c2ccc(S(=O)(=O)NCCO)cc2)nc1-c1nnc(-c2ccccc2)o1

7.00 to 8.00
7.00 to 8.00
7.00 to 8.00
≥ 8.00
≥ 8.00

====

target: full-length ATR (Homo sapiens (Human)); test: ATR Inhibition Assay (radioactive-phosphate incorporation); assay type: biochemical; conditions: read-out: ATR Ki
Kindly state Ki for each of the entries shown.

Some compounds with known Ki results, for comparison:
INSERT INTO assay_data (compound, value_observed) VALUES
  ('CNCc1ccc(-c2nnc(-c3nc(-c4ccc(S(=O)(=O)C(C)C)cc4)cnc3N)o2)c(OC)c1', '≤ 10 nM'),
  ('NCc1cccc(-c2nnc(-c3nc(-c4cccnc4)cnc3N)[nH]2)c1', '10 to 100 nM'),
  ('CNCc1ccc(-c2nnc(-c3nc(-c4ccc(S(=O)(=O)C(C)C)c(C)c4)cnc3N)o2)cc1', '≤ 10 nM'),
  ('CNCc1ccc(-c2cc(-c3nc(-c4ccc(S(=O)(=O)C(C)C)cc4)cnc3N)on2)c(C)c1', '≤ 10 nM'),
  ('Nc1ncc(-c2ccccc2)nc1-c1nc2cccc(O)c2[nH]1', '100 to 5000 nM'),
  ('Nc1ncc(-c2cccc(C(=O)N3CCOCC3)c2)nc1C(=O)Nc1ccc(N2CCCC2)cc1', '100 to 5000 nM');

Please give Ki for each item listed below.
1. CC(C)S(=O)(=O)c1ccc(-c2cnc(N)c(-c3nnc(-c4ccc(CNC5CC5)cc4)o3)n2)cc1
2. CC(C)S(=O)(=O)c1ccc(-c2cnc(N)c(-c3nnc(NC4CCCNC4)o3)n2)cc1 (centres unmarked)
3. CC(C)S(=O)(=O)c1ccc(-c2cnc(N)c(-c3nnc(-c4ccc(C(C)(C)N)cc4)o3)n2)cc1

1. ≤ 10 nM
2. 100 to 5000 nM
3. ≤ 10 nM

Please give Ki for each item listed below.
1. CS(=O)(=O)Nc1ccc(-c2cnc(N)c(C(=O)Nc3ccccc3)n2)cc1
2. CCC(C)S(=O)(=O)c1ccc(-c2cnc(N)c(-c3nnc(-c4ccc(CNC)cc4F)o3)n2)cc1 (centres unmarked)

10 to 100 nM
≤ 10 nM

====

molecular target: full-length ATR (Homo sapiens (Human), UniProt Q13535); test: ATR Inhibition Assay (radioactive-phosphate incorporation); assay type: biochemical; details: read-out: ATR Ki
Quantity Name: Ki

Some compounds with known Ki results, for comparison:
INSERT INTO measurements (compound, target_or_test_system, quantity_name, value_observed) VALUES
  ('CNCc1ccc(-c2nnc(-c3nc(-c4ccc(S(=O)(=O)C(C)C)cc4)cnc3N)o2)c(C)c1 [IA-166]', 'full-length ATR (Homo sapiens (Human), UniProt Q13535)', 'Ki', '≤ 0.01 µM'),
  ('CNCc1ccc(-c2nnc(-c3nc(-c4ccc(S(=O)(=O)C(C)C)cc4)cnc3N)o2)cc1Cl [IA-309]', 'full-length ATR (Homo sapiens (Human), UniProt Q13535)', 'Ki', '≤ 0.01 µM'),
  ('CN(C)C(=O)c1ccc(-c2cnc(N)c(-c3nnc(-c4ccccc4)o3)n2)c(C=CF)c1 [IA-148]', 'full-length ATR (Homo sapiens (Human), UniProt Q13535)', 'Ki', '0.1 to 5 µM'),
  ('Nc1ncc(-c2cc(F)c(C(=O)N3CCCNCC3)c(F)c2)nc1-c1nnc(-c2ccccc2)o1 [IA-38]', 'full-length ATR (Homo sapiens (Human), UniProt Q13535)', 'Ki', '0.01 to 0.1 µM');

Note: attention shifts to another entry.
Recorded Ki for CN(C)C(=O)c1ccc(-c2cnc(N)c(-c3nnc(-c4ccc[nH]c4=O)o3)n2)cc1 [IA-53] , please?
0.01 to 0.1 µM

====

Kindly state pKi for each of the entries shown.
Target: full-length ATR (Homo sapiens (Human), UniProt Q13535)
Experiment: ATR Inhibition Assay (radioactive-phosphate incorporation)
Type: biochemical
Conditions: read-out: ATR Ki
Protocol: Compounds were screened for their ability to inhibit ATR kinase using a radioactive-phosphate incorporation assay. Assays were carried out in a mixture of 50 mM Tris/HCl (pH 7.5), 10 mM MgCl2 and 1 mM DTT. […] After removing mean background values for all of the data points, Ki(app) data were calculated from non-linear regression analysis of the initial rate data using the Prism software package (GraphPad Prism version 3.0cx for Macintosh, GraphPad Software, San Diego Calif., USA).
pKi: −log10 of the molar value.

Some molecules with known pKi results, for comparison:
INSERT INTO assay_data (molecule, target_or_test_system, value_observed) VALUES
  ('CN1CCN(C(=O)c2ccc(-c3cnc(N)c(-c4nnc(-c5ccccc5)o4)n3)cc2)CC1', 'full-length ATR (Homo sapiens (Human), UniProt Q13535)', '≥ 8.00'),
  ('CNC(C)c1ccc(-c2nnc(-c3nc(-c4ccc(S(=O)(=O)C(C)C)cc4)cnc3N)o2)cc1 (stereo not drawn)', 'full-length ATR (Homo sapiens (Human), UniProt Q13535)', '≥ 8.00'),
  ('CNCc1ccc(-c2nnc(-c3nc(-c4ccc(S(=O)(=O)C(C)CCO)cc4)cnc3N)o2)c(F)c1 (stereo not drawn)', 'full-length ATR (Homo sapiens (Human), UniProt Q13535)', '≥ 8.00'),
  ('CC(=O)c1cccc(-c2cnc(N)c(-c3nnc(-c4ccccc4)o3)n2)c1', 'full-length ATR (Homo sapiens (Human), UniProt Q13535)', '7.00 to 8.00');

Please give pKi for each item listed below.
1. Nc1ncc(-c2ccc(C(=O)N3CCNCC3)c(F)c2)nc1-c1nnc(-c2ccccc2)o1
2. CNCc1ccc(-c2nnc(-c3nc(-c4ccc(S(=O)(=O)C5CCOC5)cc4)cnc3N)o2)cc1 (stereo not drawn)
3. CNCc1ccc(-c2nnc(-c3nc(-c4ccc(S(=O)(=O)C(C)CN(C)C)cc4)cnc3N)o2)cc1 (stereo not drawn)
4. Nc1ncc(-c2ccc(N3CCOCC3)nc2)nc1-c1nc2ccccc2[nH]1

1: 7.00 to 8.00; 2: ≥ 8.00; 3: ≥ 8.00; 4: 5.30 to 7.00

====

target: full-length ATR (Homo sapiens (Human)); assay: ATR Inhibition Assay (radioactive-phosphate incorporation); format: biochemical; conditions: read-out: ATR Ki
pKi: −log10 of the molar value.
Kindly state pKi for each of the entries shown.

Please give pKi for each item listed below.
1. CC(C)S(=O)(=O)c1ccc(-c2cnc(N)c(-c3nnc(-c4ccccc4)o3)n2)cc1 [IA-116]
2. COc1ccc(-c2cnc(N)c(C(=O)Nc3ccccc3)n2)cc1 [Compound I-1]
3. CN(C)C(=O)c1ccc(-c2cnc(N)c(-c3nnc(-c4ccccc4OCCCO)o3)n2)cc1 [IA-284]
4. Cc1ccc2nc(-c3nc(-c4ccc(S(C)(=O)=O)cc4)cnc3N)[nH]c2c1 [Compound I-117]

1. ≥ 8.00
2. 5.30 to 7.00
3. ≥ 8.00
4. 7.00 to 8.00

Please give pKi for each item listed below.
1. COc1ccccc1NC(=O)c1nc(-c2cccc(C(N)=O)c2)cnc1N [Compound I-27]
2. Nc1ncc(-c2ccccc2F)nc1C(=O)Nc1ccccc1 [Compound I-14]
3. CNCc1ccc(-c2nnc(-c3nc(-c4ccc(S(=O)(=O)C(C)C)cn4)cnc3N)o2)cc1 [IA-300]

1: 7.00 to 8.00; 2: 5.30 to 7.00; 3: ≥ 8.00

Please give pKi for each item listed below.
1. Nc1ncc(-c2ccc(F)cc2)nc1C(=O)Nc1ccccc1 [Compound I-4]
2. Nc1ncc(-c2ccc(C(=O)O)cc2)nc1C(=O)Nc1ccccc1 [Compound I-7]
3. CC(C)S(=O)(=O)c1ccc(-c2cnc(N)c(-c3nnc(-c4cccc(C#N)c4)o3)n2)cc1 [IA-187]
4. Nc1cccc(-c2nnc(-c3nc(-c4cccnc4)cnc3N)[nH]2)c1 [Compound I-140]
5. CC(C)S(=O)(=O)c1ccc(-c2cnc(N)c(-c3nnc(NC4CCNCC4)o3)n2)cc1 [IA-318]

5.30 to 7.00
7.00 to 8.00
7.00 to 8.00
7.00 to 8.00
5.30 to 7.00
